Source of measurements: patent US20140051120A1

Target: T1, p5 peptide of EGFL7 (human)
T1 construct: also called Peptide P5
T1 peptide: RACSTYRTIYRTA
Assay: SPR (Biacore), IgG over immobilized P5 peptide at 37 C;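 further: IgG variants injected at 0.5–1000 nM (2-fold series), 3 min association and 3.5 min dissociation, reference flow cell subtracted, kinetics fitted with a 1:1 Langmuir model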
property-label: kon (M⁻¹ s⁻¹)

{"columns": ["binder", "property-label", "result-number"],
 "data": [
  ["18F7.v9 IgG (antibody, V domains shown, IgG; Kabat numbering) VH: EVQLVESGGGLVQPGGSLRLSCAASGYTFIDKYMNWVRQAPGKGLEWVGDINLDNGGTHYNQKFKGRFTISRDKSKNTAYLQMNSLRAEDTAVYYCAREGVYHDYDDYAMDYWGQGTLVTVSS VL: DIQMTQSPSSLSASVGDRVTITCRTSQSLVHINGITYLHWYQQKPGKAPKLLIYRVSNRFSGVPSRFSGSGSGTDFTLTISSLQPEDFATYYCSQSTHVPLTFGQGTKVEIK", "kon", 228000],
  ["18F7.v7 IgG (antibody, V domains shown, IgG; Kabat numbering) VH: EVQLVESGGGLVQPGGSLRLSCAASGYTFIDYYMNWVRQAPGKGLEWVGDINLDNGGTHYNQKFKGRFTISRDKSKNTAYLQMNSLRAEDTAVYYCAREGVYHDYDDYAMDYWGQGTLVTVSS VL: DIQMTQSPSSLSASVGDRVTITCRTSQSLVHINGITYLHWYQQKPGKAPKLLIYRVSNRFSGVPSRFSGSGSGTDFTLTISSLQPEDFATYYCAQSTHVPLTFGQGTKVEIK", "kon", 251000],
  ["18F7.v2 IgG (antibody, name in Kabat numbering, V domains shown, IgG; Kabat numbering; also called 18F7-K) VH: EVQLVESGGGLVQPGGSLRLSCAASGYTFIDYYMNWVRQAPGKGLEWVGDINLDNGGTHYNQKFKGRFTISRDKSKNTLYLQMNSLRAEDTAVYYCAREGVYHDYDDYAMDYWGQGTLVTVSS VL: DIQMTQSPSSLSASVGDRVTITCRTSQSLVHINGITYLHWYQQKPGKAPKLLIYRVSNRFSGVPSRFSGSGSGTDFTLTISSLQPEDFATYYCSQSTHVPLTFGQGTKVEIKR", "kon", 458000]
]}
